# Target Desc: Human LDHA (Homo sapiens (Human), UniProt P00338)
# Method: human LDHA primary biochemical assay (resazurin/diaphorase coupled, fluorescence)
# Condition Label: read-out: Inhibitory activity IC50
pIC50: −log10 of the molar value.
Measurement Kind: pIC50

COc1cccc(-c2cc(-c3c(Cc4ccc([S+](N)(=O)[O-])c(F)c4)c(CC4CC4)nn3-c3nc(C(=O)O)cs3)ccc2F)c1
4.24 to 6.00
NS(=O)(=O)c1ccc(-c2cn(-c3nc(C(=O)O)cs3)nc2-c2ccccc2)cc1
4.24 to 6.00
NS(=O)(=O)c1ccc(Cc2c(-c3ccccc3)nn(-c3nc(C(=O)O)cs3)c2-c2ccncc2)cc1
4.24 to 6.00
Cc1oc(=O)oc1COC(=O)c1csc(-n2cc(Cc3ccc(S(N)(=O)=O)cc3)c(-c3ccccc3)n2)n1
6.00 to 7.00
O=C(O)c1csc(-n2ccc(-c3cccc(-c4ccccc4)c3)n2)n1
4.24 to 6.00
Nc1c(Cc2ccc(S(N)(=O)=O)cc2)c(-c2ccccc2)nn1C(=O)c1cccc(F)c1
4.24 to 6.00
NS(=O)(=O)c1ccc(Cc2cn(-c3nc(C(=O)O)cs3)c3cccc(Cc4ccccc4F)c23)cc1
6.00 to 7.00
O=C(O)c1ccc(Cc2c(-c3cccc(-c4ccccc4)c3)nn(-c3nc(C(=O)O)cs3)c2O)cc1
< 4.24
Cc1noc(C)c1-c1cc(-c2c(Cc3ccc(S(N)(=O)=O)cc3F)c(CC3CC3)nn2-c2nc(C(=O)O)cs2)ccc1F
< 4.24
COc1cc(-c2c(Cc3ccc([S+](N)(=O)[O-])cc3)c(CC3CC3)nn2-c2nc(C(=O)O)cs2)ccc1F
4.24 to 6.00
Cc1sc(-n2nc(-c3ccccc3)c(Cc3ccc(S(N)(=O)=O)cc3)c2N)nc1C(=O)O
6.00 to 7.00
NS(=O)(=O)c1ccc(Cc2cn(-c3nc(C(=O)O)cs3)c3cc(CO)ccc23)cc1
6.00 to 7.00
CCOC(=O)c1csc(-n2nc(-c3ccc(F)c(-c4ccc(C)s4)c3)c(Cc3ccc(S(N)(=O)=O)c(F)c3)c2CC2CC2)n1
< 4.24
NS(=O)(=O)c1ccc(Cc2cn(-c3nc(C(=O)O)cs3)c3ccc(CN4CCOCC4)cc23)cc1
4.24 to 6.00
NS(=O)(=O)c1ccc(Cc2c(C3CC3)nn(-c3nc(C(=O)O)cs3)c2-c2cccc(-c3ccccc3)c2)cc1
4.24 to 6.00

###

# Target Desc: Human LDHA (Homo sapiens (Human), UniProt P00338)
# Method: human LDHA primary biochemical assay (resazurin/diaphorase coupled, fluorescence)
# Condition Label: LDHA inhibitory activity, assay of Example 1; activity level classes
Measurement Kind: IC50

C=C(C)C#Cc1cc(-c2nn(-c3nc(C(=O)O)cs3)c(CC3CC3)c2Cc2ccc(S(N)(=O)=O)c(F)c2)ccc1F
< 0.1 µM
O=C(O)c1csc(-n2cc(Cc3ccc(CO)cc3)c(-c3ccccc3)n2)n1
> 57 µM
Cc1c(Cc2ccc(S(N)(=O)=O)cc2)c(-c2ccccc2)nn1-c1nc(C(=O)O)cs1
< 0.1 µM
O=C(O)c1csc2c1c(=O)[nH]c1cc(-c3ccc(F)c(F)c3)nn12
> 57 µM
COc1cccc(-c2cccc(-c3nn(-c4nc(C(=O)O)cs4)c(C(F)(F)F)c3Cc3ccc(S(N)(=O)=O)cc3)c2)c1
< 0.1 µM
CCOC(=O)c1csc(-n2nc(-c3ccc(F)c(-c4ccc(C)cc4)c3)c(Cc3ccc(S(N)(=O)=O)c(F)c3)c2C2CC2)n1
1 to 57 µM
O=C(O)c1csc(-n2nc(-c3ccc(F)c(F)c3)c3cccnc32)n1
> 57 µM
